# System: Homeobox protein Hox-A13 (Mus musculus)
# Assay remarks: disruptors of Hoxa13 oligonucleotide interaction – biochemical, fluorescence polarization, labeled oligonucleotide, primary screen (AID 1185)
# Assay conditions: Hoxa13:DNA binding, 15 min, higher = more signal, called active from +8 up or from −8 down
Kindly return yes if reported z-score is no lower than -4; return no if it is lower.

- O=C1C2C=CC(C(O)c3ccc(F)cc3)N(Nc3ccc([N+](=O)[O-])cc3)C2C(=O)N1c1ccccc1 (stereo unspecified): no
- CCCCC(=C=CC[C@H](O)c1cccc(OCCO)c1)C[C@H](O)c1ccccn1: no
- C#CCN(C/C=C/c1ccccc1)[C@H](CO)c1ccccc1: no
- [N-]=[N+]=Nc1ccccc1C[C@]1(C(=O)NCc2ccccc2)N=C(c2ccc(OCCCO)cc2)O[C@H]1c1ccccc1N=[N+]=[N-]: yes
- COC(=O)[C@]1(Cc2ccccc2)N=C(c2ccc(OCCCO)cc2)O[C@@H]1c1ccccc1N=[N+]=[N-]: yes
- CC(C)Cc1ccc(CN2CC[C@@H](N)C2)cc1: yes
- COc1cc2c(cc1OC)CN(C(=O)[C@H]1[C@@H]3C(=O)O[C@@H](c4ccccc4)[C@@H](c4ccccc4)N3[C@@H](c3ccccc3OCCO)[C@]13C(=O)Nc1ccc(C#CCCO)cc13)CC2: yes
- CN(C)CCCCCCNC(=O)[C@@H]1C[C@@H]2C(=O)N3CCC[C@H]3C(=O)N2[C@@H]1c1ccc(O)cc1: yes
- O=C(O)[C@H](Cc1ccccc1)n1cc(-c2ccccc2)nn1: yes
- CCOC(=O)C[C@H]1[C@H](OC(=O)c2cc3ccccc3oc2=O)[C@@H](NC(=O)CC(C)C)c2cc(OCCCO)ccc2N1C(=O)c1ccccc1: yes
- C=CCNC(=O)[C@H]1[C@@H]2C(=O)O[C@@H](c3ccccc3)[C@@H](c3ccccc3)N2[C@@H](c2ccc(OCCO)cc2)[C@]12C(=O)Nc1ccc(C#CCC(C(=O)OC)C(=O)OC)cc12: yes
- O=C1O[C@H](c2ccccc2)[C@H](c2ccccc2)N2[C@H]1[C@@H](C(=O)NC[C@H](O)c1ccccc1)[C@]1(C(=O)Nc3ccccc31)[C@H]2c1ccc(O)cc1: no
- CC1CC/C=C\[C@H]2OC34C=CCN(Cc5ccccc5)C(=O)[C@H]3N(C(C)CO)C(=O)[C@@H]4C2C(=O)O1 (stereo partly specified): no
- CC(C)(C)OC(=O)CC[C@]1(C(=O)NCCN2CCOCC2)COC(c2ccc(OCCCO)cc2)=N1: yes
- C[N+](C)(C)CCCC[C@@H]1NC(=O)[C@@H]2C[C@H](C(=O)NCCCCCN)[C@H](c3ccc(O)cc3)N2C1=O: yes
